inhibition values by entry
target: UniProt P09917; test: Inhibition of human recombinant 5-LOX expressed in Escherichia coli BL21 assessed as conversion of arachidonic acid to 5-HPETE at 10 uM using arachidonic acid as substrate in presence of ATP by UV-vis spectrophotometry analysis relative to control
Sequence (P09917 whole entry): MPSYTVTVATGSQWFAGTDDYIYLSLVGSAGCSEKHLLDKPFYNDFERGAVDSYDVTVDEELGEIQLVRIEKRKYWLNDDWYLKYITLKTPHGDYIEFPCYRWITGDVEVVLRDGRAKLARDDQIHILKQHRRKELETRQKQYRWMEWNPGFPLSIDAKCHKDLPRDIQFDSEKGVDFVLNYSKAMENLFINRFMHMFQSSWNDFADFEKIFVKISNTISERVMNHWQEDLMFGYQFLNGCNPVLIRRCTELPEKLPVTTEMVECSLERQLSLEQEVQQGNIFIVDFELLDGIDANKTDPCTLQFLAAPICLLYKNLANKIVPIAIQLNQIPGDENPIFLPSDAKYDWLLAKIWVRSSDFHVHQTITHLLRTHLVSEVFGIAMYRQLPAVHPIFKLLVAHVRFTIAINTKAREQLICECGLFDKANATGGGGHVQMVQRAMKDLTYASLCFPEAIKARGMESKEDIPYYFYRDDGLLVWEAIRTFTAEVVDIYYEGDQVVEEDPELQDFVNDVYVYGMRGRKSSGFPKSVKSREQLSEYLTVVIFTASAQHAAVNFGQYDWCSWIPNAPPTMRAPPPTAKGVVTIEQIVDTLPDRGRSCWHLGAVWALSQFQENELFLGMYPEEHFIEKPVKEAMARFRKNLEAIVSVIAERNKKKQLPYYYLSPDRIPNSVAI
Record the result as a number with its unit.

Consider the following illustrative entries.
{"columns": ["smiles_record", "inhibition"],
 "data": [
  ["Cc1ccc(/C=C/C(=O)c2sc(NC(=O)c3ccccc3)nc2C)cc1", "75.1%"],
  ["Cc1nc(NC(=O)c2ccccc2)sc1C(=O)/C=C/c1ccc(Br)cc1", "52.3%"],
  ["COc1ccc(/C=C/C(=O)c2sc(NC(=O)c3ccccc3)nc2C)cc1OC", "70.2%"],
  ["COc1cc(/C=C/C(=O)c2sc(NC(=O)c3ccccc3)nc2C)cc(OC)c1OC", "100%"],
  ["COc1ccc(C(=O)Nc2nc(C)c(C(=O)/C=C/c3ccc(C)cc3)s2)cc1", "100%"]
]}

Now take the following molecule into account.
Lookup: Request: inhibition, test system UniProt P09917, entry Cc1nc(NC(=O)c2ccc(F)cc2)sc1C(=O)/C=C/c1cc2c(cc1Br)OCO2
Found: 50.6%
